Source listed as patent US20100056596A1.

- Tested on: HIV-1 isolates, Mutant 8
- protocol.summary: In vitro drug sensitivity of HIV-1 laboratory isolates, Mutant 8
- Assay type: cell-based
- conditions: Mutant 8; read-out: IC50 Mutant 8
Measured pIC50 accompanies every entry in the list below.
Lab note — pIC50 values are minus log10 of concentrations in M.

Recorded results for 3 molecules are shown here.
CC(C)CN(C[C@@H](O)[C@H](Cc1ccccc1)NC(=O)OC1COC2OCCC12)S(=O)(=O)c1ccc2occ(CNCCc3ccccn3)c2c1 (stereo partly shown): 7.57
CC(C)CN(C[C@@H](O)[C@H](Cc1ccccc1)NC(=O)OC1COC2OCCC12)S(=O)(=O)c1ccc2occ(CNC(=O)c3ccco3)c2c1 (stereo partly shown): 8.05
CCOC(=O)NCc1coc2ccc(S(=O)(=O)N(CC(C)C)C[C@@H](O)[C@H](Cc3ccccc3)NC(=O)OC3COC4OCCC34)cc12 (stereo partly shown): 7.96

Query string: Give the measured pIC50 of CC(C)CN(C[C@@H](O)[C@H](Cc1ccccc1)NC(=O)OC1COC2OCCC12)S(=O)(=O)c1ccc2occ(CNC(=O)CNC(=O)OCc3ccccc3)c2c1 (stereo partly shown) .
Result string: 7.30
